Each entry below carries its recorded differential viability (reversal).
- assay-procedure: reversal of MRP1-mediated doxorubicin resistance, pilot screen, H69AR cells, doxorubicin co-treatment (AID 601)
- experimental-context: H69AR cells + 2 uM doxorubicin, CellTiter-Glo, 72 h; at 10 µM; stronger effect = higher value
I only need the number, in %, no unit after it.

Below, each entry is followed by its recorded differential viability (reversal) result.
compound="CCOC(=O)C1CCCN(Cc2nc(N)nc(Nc3ccc(C)cc3)n2)C1 (stereo not given)" unit_tag=% readout_number=-1.19
compound=CCCCN(CC)CCCNC(=O)CS(=O)(=O)Cc1nc(-c2cccc(OC)c2)oc1C unit_tag=% readout_number=10.4
compound="COc1ccc(N(CC(=O)N2c3ccccc3CC2C)S(=O)(=O)c2c(C)noc2C)cc1 (stereo not given)" unit_tag=% readout_number=-16.9
compound=CCN1C(=O)/C(=C2\C=Cc3ccccc3N2CC)OC1=S unit_tag=% readout_number=7.3

Shifting focus to the compound that follows.
Looking up Cc1cc(C(=O)NCCCc2ccccc2)no1 , I found its differential viability (reversal) recorded as 18.6

###

- assay-procedure: SK-BR-3 cell growth inhibitors, pilot screen, 24 h, human (AID 572);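 further: compound exposure lasted between 18 and 24 h rather than exactly 24 h; 100% = carrier-treated control wells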
- experimental-context: SK-BR-3 viability, CellTiter-Glo luminescence, at 10 µM, stronger effect = lower value
readout: viability (%)
Only the number, expressed in %, is required.

Example results:
compound="O=C(c1cc2ccccc2oc1=O)N1CCSC1c1ccco1 (configuration not stated)" readout=viability unit_tag=% readout_number=100
compound=COc1ccc(CCn2c(=N)c(C#N)cc3c(=O)n4ccccc4nc32)cc1 readout=viability unit_tag=% readout_number=95
compound=Cc1[nH]c(=O)[nH]c(=O)c1S(=O)(=O)N1CCN(c2cccc(Cl)c2)CC1 readout=viability unit_tag=% readout_number=88
compound=CCOc1cc(S(=O)(=O)NCc2ccccn2)c(C)cc1C readout=viability unit_tag=% readout_number=92.5

Sample CCCOc1cccc(-c2nnc(N)s2)c1 ; viability observed: 102

###

- assay-procedure: reversal of MRP1-mediated doxorubicin resistance, pilot screen, H69AR cells, doxorubicin co-treatment (AID 601)
- experimental-context: H69AR cells, CellTiter-Glo, 72 h; compound alone cytotoxicity; at 10 µM
Doc: threshold 70% (exclusive). Items with viability beneath it return t; others return f.

molecule=Cn1c(=O)oc2cc(S(=O)(=O)N3CCC(C(=O)Nc4ccc(OC(F)(F)F)cc4)CC3)ccc21 category=t
molecule=COCCn1c(SCC(=O)Nc2cccc(OC)c2)nnc1-c1ccc(Cl)cc1 category=f
molecule="O=C(Nc1ccc(O)cc1)C1CCCN1S(=O)(=O)c1ccc(F)cc1 (stereo not given)" category=f

With those in mind, consider the next molecule.
IN: Determine whether this molecule shows viability lower than 70% (ties excluded): CCOC(=O)c1[nH]c2ccccc2c1NC(=O)c1ccco1
OUT: f

###

- assay-procedure: reversal of MRP1-mediated doxorubicin resistance, pilot screen, H69AR cells, doxorubicin co-treatment (AID 601)
- experimental-context: H69AR cells + 2 uM doxorubicin, CellTiter-Glo, 72 h; measured here: viability with 2 uM doxorubicin; at 10 µM; stronger effect = lower value
readout: viability (%)
Hi! Could you send only the number? It should be in %, unit omitted.

Field viability (entry CC(=O)c1cc(-c2ccc(F)cc2)n(CCC(=O)Nc2cc(C)[nH]n2)c1C ) reads 85.5

Just so you know, measured viability for Clc1ccc(SCCn2ccnc2)cc1 came out at 84.3

Record summary for O=C(NCCO)c1scc2c1OCCO2 : reported viability = 102

Sample O=C(c1ccco1)N1CCN(S(=O)(=O)c2ccc(Oc3ccccc3)cc2)CC1 ; viability observed: 96.8

Value of viability reported for the molecule COc1ccccc1OCCOc1ccccc1/C=N/n1cnnc1 is 93.5

Query COc1ccc(Cl)cc1NC(=O)c1oc(C)nc1C yields viability of 92.3

response.value for CC(=O)Nc1ccc(S(=O)(=O)Nc2nc3n(n2)C(c2ccccc2)CC(=O)N3)cc1 (stereo unspecified) (field: viability) = 99.9

The molecule Cc1sc2ncn3ncnc3c2c1C showed viability equal to 99.2

Lab note: measured viability of CN(C1CCCCC1)S(=O)(=O)c1ccc(NC(=O)c2ccco2)cc1 was 95.1

Kindly note the recorded viability for COC(=O)Nc1ccc(S(=O)(=O)N(C)CC(F)(F)C(F)F)cc1 , which is 94.2

For COc1cccc(OC)c1C(=O)Nc1cccc(C(C)=O)c1 the molecule record lists viability as 92.2

// recorded viability for Cc1ccccc1C1CC(c2ccccc2)Nc2ncnn21 (stereo unspecified) : 95.3

Lab note: CC(C)Cc1nc(S(=O)(=O)c2ccc(Cl)cc2)c(N2CCOCC2)o1 gave viability of 90.1

Just so you know, measured viability for O=C(c1ccco1)N1CCN(/C(=N/S(=O)(=O)c2cccs2)c2ccccc2Cl)CC1 came out at 92.3

Just so you know, measured viability for COc1ccc2cc(CN(CCO)C(=O)c3ccccc3F)c(=O)[nH]c2c1 came out at 86.7

Memo: CCOC(=O)c1ccc2nc(C)c3c(c2c1)OC(C)C3 (stereo unspecified) , reported viability: 76.9

Entry CCCN1C2CCCC1CC(NC(=O)c1ccccc1F)C2 (stereo unspecified) , viability reported as 86

###

Attribute: viability
- assay-procedure: HUVEC growth inhibition – cell-based, human, primary screen (AID 575);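 further: 100% = median of untreated cell wells with 0.1% DMSO on each plate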
- experimental-context: HUVEC proliferation, CellTiter-Glo luminescence, 72 h; at 10 µM; stronger effect = lower value
Give a bare numeral; the unit % is implied.

The reported value for O=c1oc2ccccc2n1CCn1c2ccccc2c2nc3ccccc3nc21 in terms of viability is 53.2

Quick note, viability for COc1cccc(NC(=O)CSc2nnc(-c3cc(-c4ccccn4)nc4ccccc34)o2)c1 landed at 81

Value of measured viability for the entry CCN1CCN(CCCNC(=O)C2c3ccccc3C(=O)N(C)C2c2ccc(OC)cc2)CC1 (stereo unspecified) : 95.9

# viability (molecule: COc1ccc(C(CNC(=O)c2cc(C)oc2C)N2CCOCC2)cc1 (stereo unspecified) ) is 91.6

For reference, reported viability for CCOC(=O)C1=C(c2ccccc2)Nc2nc(C)nn2C1c1cccc(OC)c1OC (stereo unspecified) stands at 90.6

The molecule listed as c1ccc(-c2cc3c(nn2)CCc2nonc2-3)cc1 has a reported viability of 117

###

- assay-procedure: reducers of endogenous Her2 protein level, primary screen, SKBR3 breast tumor cells, AlphaScreen, ATP viability (AID 461);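 further: percent of carrier control wells set as 100% viability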
- experimental-context: 18-24 h, measured here: SKBR3 viability, ATP luminescence, at 10 µM
// reported viability for each item listed
Your answer should be a plain number; it is taken to be in %.

Solved entries (count: 6):
compound=CCOC(=O)CSc1nc2cc(C(=O)NCc3ccco3)ccc2c(=O)n1-c1ccc(F)cc1 unit_tag=% readout_number=86.5
compound=O=C(OCC(=O)N1CCCC1)c1cncc(Br)c1 unit_tag=% readout_number=106
compound=CCOc1ccc(-n2cc(C(=O)Nc3cccc(C)n3)c3cc(OC)c(OC)cc3c2=O)cc1 unit_tag=% readout_number=110
compound=Cc1cc(C)n(CC(=O)n2c3c(c4ccccc42)CCCC3)n1 unit_tag=% readout_number=116
compound=c1ccc(Cn2nnc3c(N4CCC5(CC4)OCCO5)ncnc32)cc1 unit_tag=% readout_number=105
compound=O=C(O)c1cc(/C=N\O)ccc1OCc1ccccc1 unit_tag=% readout_number=114

Note to self: viability recorded for N#Cc1nc(-c2ccco2)oc1NCCc1ccccc1 was 92.5

Data point: Cc1sc2ncn3ncnc3c2c1C ; viability = 91

Record COc1ccccc1-n1c(-c2cccnc2)n[nH]c1=S . Reported viability: 88

Looking up COc1ccc2ccccc2c1CN1CCN(C)CC1 , I see its viability listed as 97

// Cc1nc(C)c(C(=O)C2=C(O)C(=O)N(CCN3CCOCC3)C2c2cccnc2)s1 (stereo unspecified) : viability value = 104

The measured viability associated with CCN(CC)CCOC(=O)c1c(C)oc2ccc(O)cc12 reads 102

viability reported for this compound COC(=O)c1ccccc1NC(=O)CSc1nnnn1C1CCCCC1 : 120

Lab book: viability of CC(C)NC(=O)CSCc1ccccc1Cl noted as 96

viability recorded for this compound, COc1ccc(-c2cc(C(F)(F)F)nc(SCCC(=O)N3CCOCC3)n2)cc1 , is 116

Consider CCOc1ccc2cc(C#N)c(SCC(=O)N3CCOCC3)nc2c1 . Its measured viability is 109

# compound O=C(Nc1ccccc1N1CCOCC1)c1ccc2ccccc2n1 ; its viability = 90

Looking up CCN(CCNC(=O)C1CCN(S(=O)(=O)CC)CC1)c1ccccc1 , I see its viability listed as 124

The recorded viability for entry COC(=O)COc1ccc(S(=O)(=O)NCCC2=CCCCC2)cc1 equals 99

So, CCc1nn2c(=O)cc(CSc3nc4sc5c(c4c(=O)n3C)CCCC5)nc2s1 ? Its viability was 100

viability reported for this compound O=C(NCC1CCCO1)C1c2ccccc2C(=O)N1C1CCCCCC1 (stereo unspecified) : 105
